# measurement-description: Ratio of unbound drug in brain to plasma in rat
# Format: ADME
# assay-setup: brain and plasma, read-out: K(p,uu,brain)
observable: Kp uu
Just the number.

Entry under review: CN1CC[C@]23c4c5ccc(O)c4O[C@H]2[C@@H](O[C@@H]2O[C@H](C(=O)O)[C@@H](O)[C@H](O)[C@H]2O)C=C[C@H]3[C@H]1C5 [MORPHINE GLUCURONIDE] . Reported Kp uu?
0.56

----------
# measurement-description: Ratio of unbound drug in brain to plasma in mouse
# Type: ADME, organism-based
# assay-setup: brain and plasma, read-out: K(p,uu,brain)
observable: Kp uu
Please state the value as a number alone, without comment.

Given the entry COc1ccc(C(CN(C)C)C2(O)CCCCC2)cc1 (stereo unspecified) [VENLAFAXINE] , report its measured Kp uu.
0.98

----------
# assay-system: Substance-P receptor (Homo sapiens, UniProt P25103)
# Sequence (P25103 whole entry): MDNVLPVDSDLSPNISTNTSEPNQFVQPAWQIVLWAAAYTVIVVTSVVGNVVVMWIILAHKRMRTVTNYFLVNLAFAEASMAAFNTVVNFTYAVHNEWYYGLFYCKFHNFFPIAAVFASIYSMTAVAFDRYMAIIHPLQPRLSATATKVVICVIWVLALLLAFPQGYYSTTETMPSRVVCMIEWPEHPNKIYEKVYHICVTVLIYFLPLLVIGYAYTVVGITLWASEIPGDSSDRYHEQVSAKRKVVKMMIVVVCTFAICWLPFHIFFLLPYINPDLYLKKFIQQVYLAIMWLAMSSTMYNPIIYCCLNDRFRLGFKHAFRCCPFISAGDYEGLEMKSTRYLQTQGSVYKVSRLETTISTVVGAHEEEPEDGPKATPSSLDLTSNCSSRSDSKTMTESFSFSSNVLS
observable: IC50 (nM)
Expressed in nM, but write only the number.

# get_value(readout='IC50', item= C[C@H](NC(=O)[C@](Cc1c[nH]c2ccccc12)(CN(C)C)NC(=O)OCc1cc2ccccc2o1)c1ccccc1 )
0.5

----------
# measurement-description: Solubility of the compound
# Assay type: physicochemical
observable: solubility

# query: solubility of entry C[C@H](NC(=O)[C@@](C)(Cc1c[nH]c2ccccc12)NC(=O)OCc1cc2ccccc2o1)c1ccccc1
< 2 µg/mL

----------
# measurement-description: Oral bioavailability in dog
# Assay type: ADME, organism-based, Canis lupus familiaris
# assay-setup: in vivo
observable: bioavailability (%)
Value expressed in %; do not type the unit.

Tell me the measured bioavailability of C[C@H](NC(=O)[C@@](C)(Cc1c[nH]c2ccccc12)NC(=O)OCc1cc2ccccc2o1)c1ccccc1 , please.
60

----------
# measurement-description: Apparent permeability of the compound
# assay-setup: not told
observable: Papp (×10⁻⁶ cm/s)
Provide only the numeric value, understood in ×10⁻⁶ cm/s.

Which value of Papp has been reported for CC(C)(C)c1ccc(C(O)CCCN2CCC(C(O)(c3ccccc3)c3ccccc3)CC2)cc1 (stereo unspecified) in the records?
28.5

----------
# measurement-description: Half life in dog
# Assay type: ADME, organism-based, Canis lupus familiaris
# assay-setup: in vivo
observable: half-life

What value of measured half-life is listed for C[C@H](NC(=O)[C@@](C)(Cc1c[nH]c2ccccc12)NC(=O)OCc1cc2ccccc2o1)c1ccccc1 ?
> 6 h
